molecular target: T1, RSV postfusion F (postF), subtype A (respiratory syncytial virus subtype A, UniProt P03420 26-513); experiment: BLI, IgG
T1 construct: also called Postfusion subtype A; F deltaFP
Assign labels as follows, please: 1 for Kd below 0.3 nM; 0 for Kd equal to or exceeding 0.3 nM.

Field: example entries. Status: answers known.
### Prompt Hello, is Kd of the following binder strictly smaller than 0.3 nM? ADI-14353 (antibody, V domains shown, full-length IgG; also called Ab 21) VH: QVQLVQSGAEVKKPGSSVKVSCKASGGTFSSYTISWVRQAPGQGLEWMGRIKPIIGIANNAQRFKGRVTITAEKSTGTAYMELSSLTSEDTAVYYCARGGYDYYGMDVWGQGTTVTVSS VL: QSALTQPASVSGSPGQSITISCTGTSSDVGGYNYVSWHQQHPGKAPKLLIYDVSNRPSGVSNRFSGSKSGNTASLSISGLQAEDEADYYCSSFTSTSTPYVFGTGTQLTVL
### Response 1

### Prompt Try this binder too: ADI-19484 (antibody, V domains shown, full-length IgG) VH: QVQLQESGSGLVKPSQTLSLTCVVSGGSISSGGNSWSWIRQPPGKGLEWIGYIYDSGNTYYNPSLKSRVTISVDRSKNQFSLKVSSVTAADTAVYYCARGAETGTTGWYDPWGQGTLVTVSS VL: DIRLTQSPSSLSASVGDRVTITCRASQTISSYLNWYQQKPGKAPRLLIYAASSLQSGVPSRFSGSGSGTDFTLTISSLQPEDFATYYCQQSYGTPRTFGQGTKVEIK
### Response 0

### Prompt Try this binder too: ADI-22777 (antibody, V domains shown, full-length IgG) VH: QVQLVQSGAEVKRPGASVKVSCKASEYTFNFHDINWVRQAPGQGLEWMGWMNPKSGNTGYAQKFQGRVTMTRDTSKNTAYLELSSLRSEDTAVYYCARGYGTSWSSDSWWGQGTLVTVSS VL: SYELTQLPSVSVSPGQTARITCSGDALSKQFVYWYQQKPGLAPMLVIYKDTNRPSWIPERFSGSGSGTTATLTISEVQAEDEADYYCQSVDNSGTYGWVFGGGTKVTVL
### Response 1

---
### Prompt Hello, is Kd of the following binder strictly smaller than 0.3 nM? ADI-22764 (antibody, V domains shown, full-length IgG) VH: QVQLVESGPGLVRPSGTLSLTCAVSGGSISGKNWWSWVRQPPGKGLEWIGEIDHSGSTNYNPSLKSRVTISVDKSKNQFSLKLSSVTAADTAVYYCARTGLYDSSGYYLYYFNYWGQGTLVTVSS VL: EIVMTQSPSSLSASVGDRVTISCRASQTIASYVNWYQQRPGKAPNLLIFAASNLQTGVPSRFRGSGSGTVFTLTISSLQPEDFATYYCQQSYSTPRTFGQGTKVDIK
### Response 0

### Prompt Try this binder too: ADI-14355 (antibody, V domains shown, full-length IgG; also called Ab 23) VH: EVQLVESGPTLVKPTQTLTLTCTFSGFSLSTSGVGVGWIRQPPGKALEWLAVIYWDDDKTYSPSLKSRLTITKDTSKNQVVLTMTNMNPVDTATYYCARCPAPVYSYGVDVWGQGTTVTVSS VL: QSALTQPASVSGSPGQSITISCTATSSDFGGYDYVSWYQQHPGEAPKLMISDVTNRPSGVSNRFSGSKSGNTASLTISGLQAEDEADYYCSSYTSYTTPYVFGTGTKLTVL
### Response 0

### Prompt Try this binder too: ADI-19476 (antibody, V domains shown, full-length IgG) VH: QVQLVESGPTLVKPTQTLTLTCTFSGFSLSTSRVGVGWIRQPPGKALEWLALIYWDDDKRYSPSLKSRLTITKDTSKNQVVLTMTNMDPVDTARYYCAHRSTYDILGGYYYFDYWGQGTLVTVSS VL: QPVLTQPRSVSGSPGQSVTISCTGTSSDVGGYNYVSWFQQHPGKAPKLMIYDVSKRPSGVPNRFSGSKSGNTASLTISGLQAEDEADYFCCSYAGTYEVFGGGTKLTVL
### Response 0
